- System: HCT-116 colon
- PROCEDURE TEXT: NCI tumour cell line growth inhibition, 48 h
GI50 values, listed per item

GI50 of COc1cc2c(cc1OC)C(=O)C(Br)CC2 (stereo not given) , assay on HCT-116 colon, is 1.74 µM

---

- Tested on: SK-MEL-5 melanoma
- PROCEDURE TEXT: NCI tumour cell line growth inhibition, 48 h; in the data active = GI50 below about 0.43 µM; inactive = the rest
Answer with one of the outcomes given here: active, inactive

Kindly provide the recorded test outcome for the following compound: COc1ccccc1C(=O)/C=C/c1cc2cccc(OC)c2[nH]c1=O
active

# fetch the recorded call for OB([O][Hg][c]1ccccc1)[O][Hg][c]1ccccc1 here
inactive
